# EXPERIMENTAL_TARGET: Beta Secretase enzyme (BACE) (Homo sapiens, UniProt P56817)
# Sequence (P56817 46-501): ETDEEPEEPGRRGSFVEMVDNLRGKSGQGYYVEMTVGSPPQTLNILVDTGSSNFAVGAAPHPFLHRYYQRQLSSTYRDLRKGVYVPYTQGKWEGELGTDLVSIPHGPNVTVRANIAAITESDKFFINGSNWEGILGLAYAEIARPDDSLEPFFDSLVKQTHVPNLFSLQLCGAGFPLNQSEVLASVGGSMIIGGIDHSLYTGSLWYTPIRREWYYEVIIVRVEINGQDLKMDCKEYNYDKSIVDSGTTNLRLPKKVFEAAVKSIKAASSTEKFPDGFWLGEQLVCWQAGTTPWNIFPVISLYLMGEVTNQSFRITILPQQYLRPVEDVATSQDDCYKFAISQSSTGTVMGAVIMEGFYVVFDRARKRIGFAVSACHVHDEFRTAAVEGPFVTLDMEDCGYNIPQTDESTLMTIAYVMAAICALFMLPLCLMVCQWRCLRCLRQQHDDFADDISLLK
# ASSAY_OVERVIEW: In vitro enzymatic BACE FRET (fluorescence resonance energy transfer) assay;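 further: fluorescence read after 1 h with 50 nM quenched peptide substrate spanning the BACE cleavage site, in pH 4.2 acetate buffer containing 10% DMSO and nonionic detergent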
# Format: biochemical
# CONDITION_DESCRIPTION: Table 1; read-out: BACE1 FRET assay
OUTCOME_MEASURE: IC50 (nM)
Output spec: scalar in nM, unitless text.

Guide cases for IC50, answers given:
CC(=O)N[C@@H](Cc1ccc2c(c1)OCO2)[C@H](O)CN[C@H]1CC2(CCC2)Oc2nc(F)c(CC(C)C)cc21 [compound 338] = 109
CC(=O)N[C@@H](Cc1ccccc1)[C@H](O)CN[C@H]1CC2(CCC2)Oc2ncc(C[C@H](C)C(F)(F)F)cc21 [compound 316] = 13.6
COCC(=O)N[C@@H](Cc1ccc(F)c(Cl)c1)[C@H](O)CN[C@H]1CC2(CCC2)Oc2ncc(CC(C)(C)C)cc21 [compound 351] = 2.75

Record CC(=O)N[C@@H](Cc1ccc(F)cc1)[C@H](O)CN[C@@H]1c2cc(CC(C)(C)C)cnc2OC2(CCC2)[C@@H]1F [compound 358] . Reported IC50: 22.4

Record COCC(=O)N[C@@H](Cc1ccc(F)c(Br)c1)[C@H](O)CN[C@H]1CC2(CCC2)Oc2ncc(CC(C)(C)C)cc21 [compound 352] . Reported IC50: 3.71

Record COCC(=O)N[C@@H](Cc1ccc2c(c1)OCO2)[C@H](O)CN[C@H]1CC2(CCC2)Oc2ncc(CC(C)(C)C(F)(F)F)cc21 [compound 362] . Reported IC50: 60.1

###

# Test system: Aβ40 in conditioned medium of cells stably expressing Amyloid Precursor Protein (APP)
# ASSAY_OVERVIEW: In vitro BACE cell-based assay (Aβ40 in conditioned medium, sandwich ELISA);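 further: compounds added as a dilution series, secreted peptide quantified by europium time-resolved fluorescence readout, potency fitted from percent of control versus compound concentration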
# CONDITION_DESCRIPTION: Homo sapiens, HEK293, Table 2; HEK cells; read-out: HEK cell assay
pIC50 values, listed per item
// pIC50 here means minus log10 of the molar concentration (mol/L)

Guide cases for pIC50, answers given:
CO[C@H](C)C(=O)N[C@@H](Cc1ccc2c(c1)OCO2)[C@H](O)CN[C@H]1CC2(CCC2)Cc2sc(CC(C)(C)C)cc21 [compound 455] = 6.64
CO[C@H](C)C(=O)N[C@@H](Cc1cc(F)cc(F)c1)[C@H](O)CN[C@H]1CC2(CCC2)Oc2c(-c3cnc[nH]3)cc(CC(C)C)cc21 [compound 476] = 8.30
COCC(=O)N[C@@H](Cc1ccc2c(c1)OCO2)[C@H](O)CN[C@H]1CC2(CCC2)Oc2ncc(CCC(F)(F)F)cc21 [compound 445] = 6.21
CC(=O)N[C@@H](Cc1cc(F)cc(F)c1)[C@H](O)CN[C@H]1CC2(CCC2)Oc2c1cc(CC(C)(C)C)nc2-n1ccnc1 [compound 465] = 7.49
CO[C@H](C)C(=O)N[C@@H](Cc1cc(F)cc(F)c1)[C@H](O)CN[C@H]1CC2(CCC2)Oc2c1cc(CC(C)C)cc2-n1ccnc1 [compound 461] = 7.55

Consider the additional compound presented here.
Record CC(C)(C)Cc1cnc2c(c1)[C@@H](NC[C@@H](O)[C@H](Cc1ccc3c(c1)OCO3)NC(=O)[C@H]1CCC(=O)C1)CC1(CCC1)O2 [compound 450] . Reported pIC50: 6.74

###

# EXPERIMENTAL_TARGET: UniProt P56817
# ASSAY_OVERVIEW: In vitro enzymatic BACE FRET (fluorescence resonance energy transfer) assay
# Format: biochemical
# CONDITION_DESCRIPTION: BACE enzyme FRET assay; read-out: BACE1 FRET assay (IC50)
OUTCOME_MEASURE: pIC50
// pIC50 here means minus log10 of the molar concentration (mol/L)

Guide cases for pIC50, answers given:
COCC(=O)N[C@@H](Cc1ccc2c(c1)OCO2)[C@H](O)CN[C@H]1CC(C)(C)Cc2sc(CC(C)(C)C)cc21 [compound 187] = 7.70
COCC(=O)NC(Cc1ccc(Cl)cc1)C(O)CNC1CC2(CC(O)C2)Oc2ncc(CC(C)(C)C)cc21 (centres unmarked) [compound 234] = 8.39
CC(=O)N[C@@H](Cc1ccccc1)[C@H](O)CN[C@H]1CC2(CCC2)Oc2ncc(CC(C)(F)F)cc21 [compound 272] = 7.82
COC(=O)C1CC2(C1)CC(NCC(O)C(Cc1ccc(F)cc1)NC(C)=O)c1cc(CC(C)(C)C)cnc1O2 (centres unmarked) [compound 257] = 6.57
COCC(=O)NC(Cc1ccc2c(c1)OCO2)C(O)CNC1CC2(CC(O)C2)Oc2ccc(CC(C)(C)C)cc21 (centres unmarked) [compound 267] = 7.50
CC(=O)N[C@@H](Cc1cc(F)cc(F)c1)[C@H](O)CN[C@H]1CC2(CCC2)Oc2ncc(CC(C)(C)C(F)F)cc21 [compound 226] = 8.38
CC(=O)CC(=O)N[C@@H](Cc1ccc2c(c1)OCO2)[C@H](O)CN[C@H]1CC2(CCC2)Oc2ncc(CC(C)(C)C)cc21 [compound 308] = 7.61
COC(C)C(=O)NC(Cc1ccc2c(c1)OCO2)C(O)CNC1CC2(CC(O)C2)Oc2ccc(CC(C)(C)C)cc21 (centres unmarked) [compound 268] = 7.73

Readout pIC50 for CO[C@H](C)C(=O)N[C@@H](Cc1ccc(F)cc1)[C@H](O)CN[C@H]1CC2(CCC2)Oc2ncc([C@H](F)C(C)(C)C)cc21 [compound 186] , test system UniProt P56817, was 8.11

Readout pIC50 for CO[C@H](C)C(=O)N[C@@H](Cc1cc(Br)c2c(c1)OCO2)[C@H](O)CN[C@H]1CC2(CCC2)Oc2ncc(CC(C)(C)C)cc21 [compound 210] , test system UniProt P56817, was 6.79

Readout pIC50 for COCC(=O)N[C@@H](Cc1cccc(F)c1)[C@H](O)CN[C@H]1C[C@]2(C[C@H](O)C2)Oc2ncc(CC(C)(C)C)cc21 [compound 232] , test system UniProt P56817, was 8.63

Readout pIC50 for COC(C)C(=O)NC(Cc1ccc2c(c1)OCO2)C(O)CNC1CC2(CC(F)C2)Oc2ncc(CC(C)(C)C)cc21 (centres unmarked) [compound 241] , test system UniProt P56817, was 8.20

Readout pIC50 for CC(=O)N[C@@H](Cc1ccc2c(c1)OC(F)(F)O2)[C@H](O)CN[C@H]1CC2(CCC2)Oc2ncc(CC(C)(C)C)cc21 [compound 292] , test system UniProt P56817, was 7.49

Readout pIC50 for CO[C@H](C)C(=O)N[C@@H](Cc1ccc(F)cc1)[C@H](O)CN[C@H]1C[C@]2(C[C@H](O)C2)Oc2ncc(CC(C)C)cc21 [compound 250] , test system UniProt P56817, was 7.89

Readout pIC50 for CC(=O)N[C@@H](Cc1cc(F)c2c(c1)OCO2)[C@H](O)CN[C@H]1CC2(CCC2)Oc2ncc(CC(C)(C)C)cc21 [compound 306] , test system UniProt P56817, was 8.37

Readout pIC50 for CC(=O)N[C@@H](Cc1cc(Br)c2c(c1)OCO2)[C@H](O)CN[C@H]1CC2(CCC2)Oc2ncc(CC(C)(C)C)cc21 [compound 203] , test system UniProt P56817, was 8.55

Readout pIC50 for COCC(=O)N[C@@H](Cc1cccc(F)c1)[C@H](O)CN[C@H]1CC2(CCC2)Oc2ncc(CC(C)(F)F)cc21 [compound 278] , test system UniProt P56817, was 8.17

Readout pIC50 for CC(=O)N[C@@H](Cc1cccc(F)c1)[C@H](O)CN[C@H]1CC2(CCC2)Oc2ccc(CC(C)(C)F)cc21 [compound 201] , test system UniProt P56817, was 7.70

Readout pIC50 for COCC(=O)NC(Cc1ccc2c(c1)OCO2)C(O)CNC1CC2(CC(O)C2)Oc2cnccc21 (centres unmarked) [compound 242] , test system UniProt P56817, was 4.62

Readout pIC50 for COCC(=O)NC(Cc1ccc(F)cc1)C(O)CNC1CC2(CC(O)C2)Oc2ncc(CC(C)C)cc21 (centres unmarked) [compound 249] , test system UniProt P56817, was 8.19

Readout pIC50 for CC(=O)N[C@@H](Cc1cc(F)cc(F)c1)[C@H](O)CN[C@H]1CC2(CCC2)Oc2c(F)cc(CC(C)(C)C)cc21 [compound 224] , test system UniProt P56817, was 8.33

Readout pIC50 for COCC(=O)N[C@@H](Cc1cccc(F)c1)[C@H](O)CN[C@H]1CC2(CCC2)Oc2ncc(CC(C)(C)F)cc21 [compound 284] , test system UniProt P56817, was 8.58

Readout pIC50 for CC(=O)N[C@@H](Cc1cccc(F)c1)[C@H](O)CN[C@H]1CC2(CCC2)Oc2c(F)cc(CC(C)(C)C)cc21 [compound 220] , test system UniProt P56817, was 8.39

Readout pIC50 for COCC(=O)N[C@@H](Cc1ccc(F)cc1)[C@H](O)CN[C@H]1CC2(CCC2)Oc2ncc(CC3(C(F)(F)F)CC3)cc21 [compound 311] , test system UniProt P56817, was 7.29

Readout pIC50 for COCC(=O)N[C@@H](Cc1ccc(F)cc1)[C@H](O)CN[C@H]1C[C@]2(C[C@@H](C#N)C2)Oc2ncc(CC(C)(C)C)cc21 [compound 261] , test system UniProt P56817, was 7.41

Readout pIC50 for CO[C@H](C)C(=O)N[C@@H](Cc1cc(F)cc(F)c1)[C@H](O)CN[C@H]1CC2(CCC2)Oc2ncc(CC(C)(C)C(F)F)cc21 [compound 228] , test system UniProt P56817, was 8.21
